So I've got a bunch of compounds here, and I need their inhibition at 1 µM values.
- targetOrSystem: SPT (SPT2-expressing membrane fraction: human SPT1, human SPT2 and human ssSPTa) (Homo sapiens, UniProt O15269+O15270)
- Construct: Full-length human SPT1, human SPT2 and human ssSPTa used; made in house; host or cells: FreeStyle 293 cells (pcDNA3.1 vectors, cotransfection); crude membrane fraction used
- Sequence (O15269 1-473): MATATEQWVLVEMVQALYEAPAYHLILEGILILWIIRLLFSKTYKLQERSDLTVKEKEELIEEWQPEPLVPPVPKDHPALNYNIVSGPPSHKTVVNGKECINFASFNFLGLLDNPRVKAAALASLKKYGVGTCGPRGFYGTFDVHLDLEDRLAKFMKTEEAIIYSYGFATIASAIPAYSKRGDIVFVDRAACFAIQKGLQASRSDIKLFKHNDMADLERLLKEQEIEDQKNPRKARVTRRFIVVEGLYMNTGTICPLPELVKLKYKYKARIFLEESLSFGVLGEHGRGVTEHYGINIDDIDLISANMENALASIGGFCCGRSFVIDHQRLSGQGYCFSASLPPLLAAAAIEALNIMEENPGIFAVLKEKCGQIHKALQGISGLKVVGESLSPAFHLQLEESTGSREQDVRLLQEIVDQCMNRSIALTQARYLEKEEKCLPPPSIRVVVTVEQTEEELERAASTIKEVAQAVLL
- Sequence (O15270 1-562): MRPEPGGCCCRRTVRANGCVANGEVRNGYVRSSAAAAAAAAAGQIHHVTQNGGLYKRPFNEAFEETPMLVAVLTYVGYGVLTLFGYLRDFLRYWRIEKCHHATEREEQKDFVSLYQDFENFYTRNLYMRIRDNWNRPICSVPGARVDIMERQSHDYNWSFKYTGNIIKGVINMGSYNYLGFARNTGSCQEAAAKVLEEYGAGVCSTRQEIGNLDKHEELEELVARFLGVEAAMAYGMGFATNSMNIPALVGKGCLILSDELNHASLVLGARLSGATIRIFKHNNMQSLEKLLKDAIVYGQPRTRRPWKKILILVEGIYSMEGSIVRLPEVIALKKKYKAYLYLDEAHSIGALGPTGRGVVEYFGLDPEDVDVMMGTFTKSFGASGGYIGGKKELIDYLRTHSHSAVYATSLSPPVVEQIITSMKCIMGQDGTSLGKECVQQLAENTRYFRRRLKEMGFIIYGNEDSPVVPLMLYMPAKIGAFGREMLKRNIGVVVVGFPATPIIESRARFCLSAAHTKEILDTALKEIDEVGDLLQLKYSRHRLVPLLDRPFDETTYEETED
- Sequence (Q969W0 1-71 partner): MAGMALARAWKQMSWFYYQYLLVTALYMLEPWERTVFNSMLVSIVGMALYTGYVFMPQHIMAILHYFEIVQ
- assayOverview: SPT enzyme inhibition test (Test Example 1)
- Type: biochemical
- conditionsUsed: read-out: Rate of inhibition (%) at 1 μM
Give your result as the value with the unit written after it.

# example entries with known answers
# compound, inhibition at 1 µM
records = [
    ("COc1cc(C(=O)N2CC[C@@H](NC(=O)c3cnccc3C(F)(F)F)[C@@H](c3ccccc3)C2)cnc1OC [Example 139B]", "100%"),
    ("COc1cc(C(=O)N2CC[C@@H](NC(=O)c3ccccc3OC(F)(F)F)[C@@H](c3ccccc3)C2)cnc1OC [Example 70B]", "100%"),
    ("COc1cc(C(=O)N2CCC(NC(=O)c3ccccc3Cl)c3c2cnn3C)cnc1OC (stereo not shown) [Example 80A]", "99%"),
    ("COc1cc(C(=O)N2CC[C@@H](NC(=O)c3cc(C(F)(F)F)nn3C)[C@@H](c3ccc(F)cc3)C2)cc2nccnc12 [Example 352B]", "102%"),
    ("COc1cc(C(=O)N2CC[C@@H](NC(=O)c3cc(C)nn3C)[C@@H](c3ccccc3)C2)cnc1OC [Example 151B]", "99%"),
    ("Cn1nc(C(F)(F)F)cc1C(=O)N[C@@H]1CCN(C(=O)c2cc(Cl)c3nccnc3c2)C[C@@H]1c1ccc(F)cc1 [Example 96B]", "102%"),
]

Let's switch to this compound now.
Incoming: Record request: inhibition at 1 µM value, item CS(=O)(=O)c1ccc(C(=O)N2CC[C@@H](NC(=O)c3ccccc3OC(F)(F)F)[C@@H](c3ccccc3)C2)cc1Cl [Example 102B]
Outgoing: 100%

Attribution: patent US10189785B2
